# Test system: Carrageenin edema
# test name: Antiinflammatory action (Carrageenin edema method)
# Type: in vivo, Jcl: SD rats
# conditions: Rattus norvegicus; 50 mg/kg oral, one hour before carrageenin; paw volume 3 hours later; rats; read-out: Inhibition rate, Carrageenin edema
Decide by inhibition in vivo at 50 mg/kg: equal to or exceeding 90% means Met, less means Not met.

// known answers, use as guide
{"compound": "CCCn1c(=O)c2c3n(nc2n(CCC(C)C)c1=O)CCN3 [compound 17]", "assigned label": "Not met"}
{"compound": "CCCn1c(=O)c2c3n(nc2n(CC)c1=O)CCN3 [compound 10]", "assigned label": "Met"}
{"compound": "CCCn1c(=O)c2c(nn3cc[nH]c23)n(CC(C)C)c1=O [compound 48]", "assigned label": "Met"}
{"compound": "CCCCCn1c(=O)n(CCC)c(=O)c2c1nn1cc[nH]c21 [compound 50]", "assigned label": "Not met"}
{"compound": "CCCCCn1c(=O)n(CCC)c(=O)c2c3n(nc21)CCN3 [compound 6]", "assigned label": "Met"}

Now consider a different compound.
**Q:** Check the entry C=CCn1c(=O)n(CCC)c(=O)c2c3n(nc21)CCN3 [compound 18] : does inhibition in vivo at 50 mg/kg equal or exceed 90%?
**A:** Met

----------
# Tested on: Phenyl quinone writhing
# test name: Analgesic action (Phenyl quinone writhing method)
# Format: in vivo, Slc: ICR mice
# conditions: Mus musculus, 20 min; 50 mg/kg oral, 30 minutes before phenyl quinone; 20 minutes counting; mice; read-out: Inhibition rate, Phenyl quinone writhing
recorded endpoint: inhibition in vivo at 50 mg/kg (%)
Only the number, expressed in %, is required.

**Q:** Please report the recorded inhibition in vivo at 50 mg/kg for CCCn1c(=O)c2c(nn3cc[nH]c23)n(CCC)c1=O .
**A:** 96

**Q:** inhibition in vivo at 50 mg/kg for CCCn1c(=O)c2c3n(nc2n(CC)c1=O)CCN3 ?
**A:** 87

**Q:** inhibition in vivo at 50 mg/kg lookup needed for CCCCn1c(=O)n(CCC)c(=O)c2c1nn1cc[nH]c21 , thanks.
**A:** 89

----------
# reported inhibition in vivo at 50 mg/kg; entries follow
# Test system: Carrageenin edema
# test name: Antiinflammatory action (Carrageenin edema method)
# Format: in vivo, Jcl: SD rats
# conditions: Rattus norvegicus; 50 mg/kg oral, one hour before carrageenin; paw volume 3 hours later; rats; read-out: Inhibition rate, Carrageenin edema
Provide only the numeric value, understood in %.

A selection of reference data follows.
{"compound": "CCCCn1c(=O)c2c(nn3cc[nH]c23)n(CCCC)c1=O [compound 46]", "reading": 90}
{"compound": "CCCn1c(=O)c2c3n(nc2n(CCC)c1=O)CCN3C(=O)CC [compound 33]", "reading": 87}
{"compound": "CCCCn1c(=O)n(CCC)c(=O)c2c3n(nc21)CCN3 [compound 2]", "reading": 103}

Would you kindly look at the next entry?
**Q:** Look up inhibition in vivo at 50 mg/kg: C=CCn1c(=O)n(CCC)c(=O)c2c1nn1cc[nH]c21 [compound 49]
**A:** 80

----------
# System: Phenyl quinone writhing
# test name: Analgesic action (Phenyl quinone writhing method)
# Type: in vivo, Slc: ICR mice
# conditions: Mus musculus, 20 min; 50 mg/kg oral, 30 minutes before phenyl quinone; 20 minutes counting; mice; read-out: Inhibition rate, Phenyl quinone writhing
Listing of recorded inhibition in vivo at 50 mg/kg by entry.
Give the value in % but do not write % after it.

{"test smiles": "CCCCCn1c(=O)n(CCC)c(=O)c2c1nn1cc[nH]c21", "recorded endpoint": "inhibition in vivo at 50 mg/kg", "reading": 89}
{"test smiles": "CCCn1c(=O)c2c(nn3cc[nH]c23)n(CC(C)C)c1=O", "recorded endpoint": "inhibition in vivo at 50 mg/kg", "reading": 91}

Please turn your attention to the following entry.
**Q:** State the recorded inhibition in vivo at 50 mg/kg for this entry: C=CCn1c(=O)n(CCC)c(=O)c2c3n(nc21)CCN3
**A:** 90
